Experiment: Cytotoxicity against human HCT116/VM46 cells assessed as reduction in cell viability after 72 hrs by phosphatase assay
Format: cell-based
Details: HCT-116/VM46, 72 h
Measured pIC50 values are reported for all entries that follow.
Scale: negative log10 of molar concentration, which is what pIC50 denotes.

{"columns": ["smiles representation", "pIC50"],
 "data": [
  ["CC[C@]1(NC(=O)c2ccc3c(c2)OCO3)C[C@H]2CN(CCc3c([nH]c4ccccc34)[C@@](C(=O)OC)(c3cc4c(cc3OC)N(C)[C@H]3[C@@](O)(C(=O)OC)[C@H](OC(C)=O)[C@]5(CC)C=CCN6CC[C@]43[C@@H]65)C2)C1", 8.06],
  ["CC[C@]1(NC(=O)c2ccc3c(c2)CCO3)C[C@H]2CN(CCc3c([nH]c4ccccc34)[C@@](C(=O)OC)(c3cc4c(cc3OC)N(C)[C@H]3[C@@](O)(C(=O)OC)[C@H](OC(C)=O)[C@]5(CC)C=CCN6CC[C@]43[C@@H]65)C2)C1", 8.62],
  ["CC[C@]1(NC(=O)c2ccc(C)c(NC(=O)c3ccccc3)c2)C[C@H]2CN(CCc3c([nH]c4ccccc34)[C@@](C(=O)OC)(c3cc4c(cc3OC)N(C)[C@H]3[C@@](O)(C(=O)OC)[C@H](OC(C)=O)[C@]5(CC)C=CCN6CC[C@]43[C@@H]65)C2)C1", 6.62],
  ["CC[C@]1(NC(=O)/C=C/c2cccnc2)C[C@H]2CN(CCc3c([nH]c4ccccc34)[C@@](C(=O)OC)(c3cc4c(cc3OC)N(C)[C@H]3[C@@](O)(C(=O)OC)[C@H](OC(C)=O)[C@]5(CC)C=CCN6CC[C@]43[C@@H]65)C2)C1", 6.49],
  ["CCOc1ccc(C(=O)N[C@@]2(CC)C[C@H]3CN(CCc4c([nH]c5ccccc45)[C@@](C(=O)OC)(c4cc5c(cc4OC)N(C)[C@H]4[C@@](O)(C(=O)OC)[C@H](OC(C)=O)[C@]6(CC)C=CCN7CC[C@]54[C@@H]76)C3)C2)cc1", 8.55],
  ["CC[C@]1(NC(=O)c2cc(OC)c(OC)c(OC)c2)C[C@H]2CN(CCc3c([nH]c4ccccc34)[C@@](C(=O)OC)(c3cc4c(cc3OC)N(C)[C@H]3[C@@](O)(C(=O)OC)[C@H](OC(C)=O)[C@]5(CC)C=CCN6CC[C@]43[C@@H]65)C2)C1", 8.62]
]}

Could you now look at the following compound, please?
INPUT: Given "CC[C@]1(NC(=O)C2CCCCC2)C[C@H]2CN(CCc3c([nH]c4ccccc34)[C@@](C(=O)OC)(c3cc4c(cc3OC)N(C)[C@H]3[C@@](O)(C(=O)OC)[C@H](OC(C)=O)[C@]5(CC)C=CCN6CC[C@]43[C@@H]65)C2)C1" , state its recorded pIC50.
OUTPUT: 6.12

====

Measured IC50 values are reported for all entries that follow.
Test: Cytotoxicity against human HCT116/VM46 cells assessed as reduction in cell viability after 72 hrs by phosphatase assay
Format: cell-based
Settings: HCT-116/VM46, 72 h

Check out these entries, answers already filled in.
{"columns": ["compound", "value measured"],
 "data": [
  ["CC[C@]1(NC(=O)c2cncn2C)C[C@H]2CN(CCc3c([nH]c4ccccc34)[C@@](C(=O)OC)(c3cc4c(cc3OC)N(C)[C@H]3[C@@](O)(C(=O)OC)[C@H](OC(C)=O)[C@]5(CC)C=CCN6CC[C@]43[C@@H]65)C2)C1", "80 nM"],
  ["CC[C@]1(O)C[C@@H]2CN(CCc3c([nH]c4ccccc34)[C@@](C(=O)OC)(c3cc4c(cc3OC)N(C)[C@H]3[C@@](O)(C(=O)OC)[C@H](OC(C)=O)[C@]5(CC)C=CCN6CC[C@]43[C@@H]65)C2)C1 [VINBLASTINE]", "110 to 600 nM"],
  ["CC[C@]1(NC(=O)c2ccc(C)c(C)c2)C[C@H]2CN(CCc3c([nH]c4ccccc34)[C@@](C(=O)OC)(c3cc4c(cc3OC)N(C)[C@H]3[C@@](O)(C(=O)OC)[C@H](OC(C)=O)[C@]5(CC)C=CCN6CC[C@]43[C@@H]65)C2)C1", "7.6 to 9 nM"],
  ["CC[C@]1(NC(=O)c2ccc(C3CCCCC3)cc2)C[C@H]2CN(CCc3c([nH]c4ccccc34)[C@@](C(=O)OC)(c3cc4c(cc3OC)N(C)[C@H]3[C@@](O)(C(=O)OC)[C@H](OC(C)=O)[C@]5(CC)C=CCN6CC[C@]43[C@@H]65)C2)C1", "60 nM"],
  ["CC[C@]1(NC(=O)c2ccc3c(c2)C(C)(C)CCC3(C)C)C[C@H]2CN(CCc3c([nH]c4ccccc34)[C@@](C(=O)OC)(c3cc4c(cc3OC)N(C)[C@H]3[C@@](O)(C(=O)OC)[C@H](OC(C)=O)[C@]5(CC)C=CCN6CC[C@]43[C@@H]65)C2)C1", "50 nM"]
]}

Could you now look at the following compound, please?
INPUT: Given "CC[C@]1(O)C[C@H]2CN(CCc3c([nH]c4ccc(F)cc34)[C@@](C(=O)OC)(c3cc4c(cc3OC)N(C)[C@H]3[C@@](O)(C(=O)OC)[C@H](OC(C)=O)[C@]5(CC)C=CCN6CC[C@]43[C@@H]65)C2)C1" , state its recorded IC50.
OUTPUT: 30 nM
